Catalogue of molecules with associated Activity
- target-system: UniProt P20618
- Sequence (whole entry): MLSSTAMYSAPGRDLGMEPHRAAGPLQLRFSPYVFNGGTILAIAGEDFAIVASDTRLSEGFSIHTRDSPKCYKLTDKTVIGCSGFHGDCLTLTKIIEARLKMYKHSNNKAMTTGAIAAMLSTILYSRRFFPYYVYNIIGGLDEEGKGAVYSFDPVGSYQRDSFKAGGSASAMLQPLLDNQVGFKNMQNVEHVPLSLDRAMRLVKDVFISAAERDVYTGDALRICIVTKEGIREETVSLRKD
- method-description: Inhibition of 26S proteasome beta 1 in human HEK293 cell lysate assessed as residual activity at 0.002 uM after 1 hr
- Assay type: cell-free

{"columns": ["molecule", "u", "Activity"],
 "data": [
  ["CC(C)C[C@H](NC(=O)[C@H](Cc1ccccc1)NC(=O)[C@H](Cc1ccccc1)NC(=O)[C@H](Cc1ccccc1)N=[N+]=[N-])C(=O)[C@@]1(C)CO1", "%", 100],
  ["CC(C)C[C@H](NC(=O)[C@H](Cc1cc(C(F)(F)F)cc(C(F)(F)F)c1)NC(=O)[C@H](Cc1ccccc1)NC(=O)[C@H](Cc1ccccc1)N=[N+]=[N-])C(=O)[C@@]1(C)CO1", "%", 102],
  ["CC(C)C[C@H](NC(=O)[C@H](Cc1c(F)c(F)c(F)c(F)c1F)NC(=O)[C@H](Cc1ccccc1)NC(=O)[C@H](Cc1ccccc1)N=[N+]=[N-])C(=O)[C@@]1(C)CO1", "%", 106],
  ["CC(C)C[C@H](NC(=O)[C@H](Cc1c(F)c(F)c(F)c(F)c1F)NC(=O)c1cnccn1)B1OC2C[C@@H]3C[C@@H](C3(C)C)[C@]2(C)O1 (stereo partly specified)", "%", 96.1],
  ["CC(C)C[C@H](NC(=O)[C@H](Cc1ccccc1)NC(=O)[C@H](Cc1cc(C(F)(F)F)cc(C(F)(F)F)c1)NC(=O)[C@H](Cc1ccccc1)N=[N+]=[N-])C(=O)[C@@]1(C)CO1", "%", 92.8],
  ["CC(C)C[C@H](NC(=O)[C@H](Cc1cc(C(F)(F)F)cc(C(F)(F)F)c1)NC(=O)c1cnccn1)B1OC2C[C@@H]3C[C@@H](C3(C)C)[C@]2(C)O1 (stereo partly specified)", "%", 102]
]}

---

Catalogue of compounds with associated Activity
- target-system: Proteasome subunit beta type-5 (Homo sapiens) (UniProt P28074)
- method-description: Inhibition of 26S proteasome beta 5 in human HEK293 cell lysate assessed as residual activity at […] after 1 hr

{"columns": ["compound", "Activity [%]"],
 "data": [
  ["CC(C)C[C@H](NC(=O)[C@H](Cc1cc(C(F)(F)F)cc(C(F)(F)F)c1)NC(=O)c1cnccn1)B1OC2C[C@@H]3C[C@@H](C3(C)C)[C@]2(C)O1 (stereo not given in full)", 2.7],
  ["CC(C)C[C@H](NC(=O)[C@H](Cc1cc(C(F)(F)F)cc(C(F)(F)F)c1)NC(=O)[C@H](Cc1ccccc1)NC(=O)[C@H](Cc1ccccc1)N=[N+]=[N-])C(=O)[C@@]1(C)CO1", 5.2],
  ["CC1=CC(C)=[N+]2C1=C(CCCCc1cn([C@@H](Cc3ccccc3)C(=O)N[C@@H](Cc3ccccc3)C(=O)N[C@@H](Cc3c(F)c(F)c(F)c(F)c3F)C(=O)N[C@@H](CC(C)C)C(=O)[C@@]3(C)CO3)nn1)c1c(C)cc(C)n1[B-]2(F)F", 45.8],
  ["CC(C)C[C@H](NC(=O)[C@H](Cc1ccccc1)NC(=O)[C@H](Cc1c(F)c(F)c(F)c(F)c1F)NC(=O)[C@H](Cc1ccccc1)N=[N+]=[N-])C(=O)[C@@]1(C)CO1", 8],
  ["CC(C)C[C@H](NC(=O)[C@H](Cc1ccccc1)NC(=O)[C@H](Cc1cc(C(F)(F)F)cc(C(F)(F)F)c1)NC(=O)[C@H](Cc1ccccc1)N=[N+]=[N-])C(=O)[C@@]1(C)CO1", 11]
]}

---

Catalogue of compounds with associated Activity
- target-system: Proteasome component C5 (Homo sapiens) (UniProt P20618)
- Sequence (whole entry): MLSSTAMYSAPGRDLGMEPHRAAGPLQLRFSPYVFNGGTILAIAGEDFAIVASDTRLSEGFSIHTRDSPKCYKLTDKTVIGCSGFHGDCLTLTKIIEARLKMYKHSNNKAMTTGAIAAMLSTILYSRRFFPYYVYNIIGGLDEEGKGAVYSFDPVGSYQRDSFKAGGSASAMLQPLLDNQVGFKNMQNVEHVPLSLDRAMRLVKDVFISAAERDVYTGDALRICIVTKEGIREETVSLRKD
- method-description: Inhibition of 26S proteasome beta 1 in human HEK293 cell lysate assessed as residual activity at 0.5 uM after 1 hr
- Type: cell-free

{"columns": ["compound", "Activity, %"],
 "data": [
  ["CC(C)C[C@H](NC(=O)[C@H](Cc1ccccc1)NC(=O)[C@H](Cc1cc(C(F)(F)F)cc(C(F)(F)F)c1)NC(=O)[C@H](Cc1ccccc1)N=[N+]=[N-])C(=O)[C@@]1(C)CO1", 104],
  ["CC(C)C[C@H](NC(=O)[C@H](Cc1cc(C(F)(F)F)cc(C(F)(F)F)c1)NC(=O)[C@H](Cc1ccccc1)NC(=O)[C@H](Cc1ccccc1)N=[N+]=[N-])C(=O)[C@@]1(C)CO1", 89.9],
  ["CC(C)C[C@H](NC(=O)[C@H](Cc1c(F)c(F)c(F)c(F)c1F)NC(=O)c1cnccn1)B1OC2C[C@@H]3C[C@@H](C3(C)C)[C@]2(C)O1 (some centres not stated)", 40.4],
  ["CC(C)C[C@H](NC(=O)[C@H](Cc1ccccc1)NC(=O)[C@H](Cc1ccccc1)NC(=O)[C@H](Cc1ccccc1)N=[N+]=[N-])C(=O)[C@@]1(C)CO1", 58.4],
  ["CC(C)C[C@H](NC(=O)[C@H](Cc1ccccc1)NC(=O)[C@H](Cc1c(F)c(F)c(F)c(F)c1F)NC(=O)[C@H](Cc1ccccc1)N=[N+]=[N-])C(=O)[C@@]1(C)CO1", 103],
  ["CC(C)C[C@H](NC(=O)[C@H](Cc1cc(C(F)(F)F)cc(C(F)(F)F)c1)NC(=O)c1cnccn1)B1OC2C[C@@H]3C[C@@H](C3(C)C)[C@]2(C)O1 (some centres not stated)", 17],
  ["CC(C)C[C@H](NC(=O)[C@H](Cc1c(F)c(F)c(F)c(F)c1F)NC(=O)[C@H](Cc1ccccc1)NC(=O)[C@H](Cc1ccccc1)N=[N+]=[N-])C(=O)[C@@]1(C)CO1", 98.3]
]}

---

- target-system: Proteasome Macropain subunit (Homo sapiens) (UniProt P49721)
- Sequence (P49721 whole entry): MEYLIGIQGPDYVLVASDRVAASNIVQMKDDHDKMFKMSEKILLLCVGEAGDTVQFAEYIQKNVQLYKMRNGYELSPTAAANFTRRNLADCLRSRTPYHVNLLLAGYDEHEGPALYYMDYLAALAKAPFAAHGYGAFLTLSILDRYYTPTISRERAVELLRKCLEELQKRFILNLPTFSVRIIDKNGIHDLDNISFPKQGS
- method-description: Inhibition of 26S proteasome beta 2 in human HEK293 cell lysate assessed as residual activity at […] after 1 hr
- Assay type: cell-free
Catalogue of compounds with associated Activity
result-type: Activity (%)

{"columns": ["compound", "result-type", "u", "value-observed"],
 "data": [
  ["CC(C)C[C@H](NC(=O)[C@H](Cc1cc(C(F)(F)F)cc(C(F)(F)F)c1)NC(=O)[C@H](Cc1ccccc1)NC(=O)[C@H](Cc1ccccc1)N=[N+]=[N-])C(=O)[C@@]1(C)CO1", "Activity", "%", 111],
  ["CC(C)C[C@H](NC(=O)[C@H](Cc1ccccc1)NC(=O)[C@H](Cc1cc(C(F)(F)F)cc(C(F)(F)F)c1)NC(=O)[C@H](Cc1ccccc1)N=[N+]=[N-])C(=O)[C@@]1(C)CO1", "Activity", "%", 105],
  ["CC(C)C[C@H](NC(=O)[C@H](Cc1c(F)c(F)c(F)c(F)c1F)NC(=O)c1cnccn1)B1OC2C[C@@H]3C[C@@H](C3(C)C)[C@]2(C)O1 (some centres not stated)", "Activity", "%", 118],
  ["CC(C)C[C@H](NC(=O)[C@H](Cc1cc(C(F)(F)F)cc(C(F)(F)F)c1)NC(=O)c1cnccn1)B1OC2C[C@@H]3C[C@@H](C3(C)C)[C@]2(C)O1 (some centres not stated)", "Activity", "%", 122],
  ["CC(C)C[C@H](NC(=O)[C@H](Cc1ccccc1)NC(=O)[C@H](Cc1c(F)c(F)c(F)c(F)c1F)NC(=O)[C@H](Cc1ccccc1)N=[N+]=[N-])C(=O)[C@@]1(C)CO1", "Activity", "%", 98.7],
  ["CC(C)C[C@H](NC(=O)[C@H](Cc1c(F)c(F)c(F)c(F)c1F)NC(=O)[C@H](Cc1ccccc1)NC(=O)[C@H](Cc1ccccc1)N=[N+]=[N-])C(=O)[C@@]1(C)CO1", "Activity", "%", 120],
  ["CC(C)C[C@H](NC(=O)[C@H](Cc1ccccc1)NC(=O)[C@H](Cc1ccccc1)NC(=O)[C@H](Cc1ccccc1)N=[N+]=[N-])C(=O)[C@@]1(C)CO1", "Activity", "%", 115]
]}
